Target: Recombinant soluble 60-mer human BAFF (His-HuBAFF 134-285) (human, UniProt Q9Y275 134-285)
Assay: cell-based or functional assay
measured-metric: Soluble 60-mer huBAFF (4 pM) Neutralization IC50
Give bare numbers, in pM.

435A6B3 (antibody, V domains shown) VH: EVQLQQSGPELVKPGASMKMSCKASGYTFTSYVMHWMKQKPGQGLEWIGYLNPNNDGTKYNEKFKGKATLTSDKSSSTAYMELSSLTSEDSAVYYCARGDYSNYFYWYFDVWGAGTTVSVSS VL: DIKMTPSPSSMYASLGERVTITCKASQDINRYLSWFQQKPGKSPKTLIYRANRLVDGVPSRFSGSGSGQDYSLTISSLEYEDMGIYYCLQYDEFPYTFGGGTKLEIK
10
436H2C12 (antibody, V domains shown) VH: QVQLQQSGPELVKPGASVKLSCKASGYTFSDYTIHWVKQSPGQGLEWIGWIYPGRGNTKYNDKFKGKATMTADKSSSTAYMQLSSLTSEESAVYFCARDYRRYYAMDYWGQGTSVTVSS VL: NIVLTQSPASLAVSLGQRATISCRASESVDNYGNSFMHWYQQKPGQPPKLLISLASNLESGVPARFSGSGSRTDFTLTIDPVEADDAATYYCQQNNEDPRTFGGGTKLEIK
15

The value of Soluble 60-mer huBAFF (4 pM) Neutralization IC50 measured for the binder 551H4D6 (antibody, V domains shown) VH: EVQLQQSGAELVRPGASVELSCTASGFNIKNDYLHWVKQRPEQGLEWIGWIDSANDKTKYAPKFQDKATITADPSSNTAYLQLSSLTSEDTAVYYCTRVGVQDGYYVRDFDYWGQGTTLTVSS VL: DIVLTQSPASLAVSLGQRATMSCRASESVDSYGNSFIHWYQQKPGQPPRLLIYRASNLNSGIPARFSGSGSRTDFTLTISSVEADDVATYYCHQNNEDPRTFGGGTKLEIK turned out to be 234
